biological target: Ribonucleoside-diphosphate reductase large subunit (Mus musculus); assay: Inhibitory activity of compound against mammalian ribonucleotide reductase; Range is 110-230
Sequence (P07742 whole entry): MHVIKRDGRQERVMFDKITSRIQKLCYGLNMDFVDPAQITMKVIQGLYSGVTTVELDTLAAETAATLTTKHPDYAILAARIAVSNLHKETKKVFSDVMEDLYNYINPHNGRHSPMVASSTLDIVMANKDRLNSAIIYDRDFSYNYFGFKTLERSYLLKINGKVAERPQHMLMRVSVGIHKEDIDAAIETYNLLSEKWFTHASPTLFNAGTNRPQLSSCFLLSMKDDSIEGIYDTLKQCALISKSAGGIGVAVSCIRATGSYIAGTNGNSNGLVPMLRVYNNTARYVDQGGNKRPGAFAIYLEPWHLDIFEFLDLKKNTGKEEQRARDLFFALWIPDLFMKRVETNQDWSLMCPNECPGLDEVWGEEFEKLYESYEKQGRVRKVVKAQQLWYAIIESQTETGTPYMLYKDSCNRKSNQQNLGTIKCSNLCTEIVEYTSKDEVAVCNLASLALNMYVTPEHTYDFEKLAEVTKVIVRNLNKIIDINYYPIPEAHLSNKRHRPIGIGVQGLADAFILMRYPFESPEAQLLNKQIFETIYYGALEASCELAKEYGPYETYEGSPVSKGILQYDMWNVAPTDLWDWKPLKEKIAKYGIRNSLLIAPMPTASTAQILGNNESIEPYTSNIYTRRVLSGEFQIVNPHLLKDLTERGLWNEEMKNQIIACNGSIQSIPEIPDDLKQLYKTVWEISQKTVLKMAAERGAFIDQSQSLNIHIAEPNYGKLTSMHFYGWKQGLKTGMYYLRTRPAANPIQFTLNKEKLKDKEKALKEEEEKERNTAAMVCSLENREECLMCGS
metric: IC50 (µM)
Express your answer in µM, writing the number without its unit.

Prompt: What value of IC50 has been recorded for this entry: `CC(=O)N[C@@H](Cc1ccccc1)C(=O)N[C@H](C(=O)N[C@@H](CC(C)C)C(=O)N[C@@H](CC(=O)O)C(=O)NCC(=O)N[C@@H](CC(=O)O)C(=O)N[C@@H](Cc1ccccc1)C(=O)O)[C@@H](C)O`
Response: 110

###

biological target: Ribonucleoside-diphosphate reductase large subunit (Mus musculus); assay: Inhibitory activity of compound against mammalian ribonucleotide reductase; Range is 40-42
metric: IC50 (µM)
Expressed in µM, but write only the number.

Prompt: What value of measured IC50 is listed for `Ac-FSLDADF-OH` ?
Response: 40

###

target: Ribonucleoside-diphosphate reductase RR1 (Homo sapiens) (UniProt P23921+Q7LG56+P31350); experiment: Relative inhibitory potency against mammalian ribonucleotide reductase; type: protein-complex assay
metric: RI (%)
Your answer is read as %, so omit the unit and give the number.

| smiles_str | tested_system | value_observed |
| --- | --- | --- |
| CC(=O)N[C@@H](CC(N)=O)C(=O)N[C@@H](CO)C(=O)N[C@@H](Cc1ccccc1)C(=O)N[C@H](C(=O)N[C@@H](CC(C)C)C(=O)N[C@@H](CC(=O)O)C(=O)N[C@@H](C)C(=O)N[C@@H](CC(=O)O)C(=O)N[C@@H](Cc1ccccc1)C(=O)O)[C@H](C)O | Ribonucleoside-diphosphate reductase RR1 (Homo sapiens) (UniProt P23921+Q7LG56+P31350) | 100 |
| CC(=O)N[C@@H](Cc1ccc(N)cc1)C(=O)N[C@H](C(=O)N[C@@H](CC(C)C)C(=O)N[C@@H](CC(=O)O)C(=O)N[C@@H](C)C(=O)N[C@@H](CC(=O)O)C(=O)N[C@@H](Cc1ccccc1)C(=O)O)[C@H](C)O | Ribonucleoside-diphosphate reductase RR1 (Homo sapiens) (UniProt P23921+Q7LG56+P31350) | 10 |
| CC(=O)N[C@@H](Cc1ccccc1)C(=O)N[C@H](C(=O)N[C@@H](Cc1ccccc1)C(=O)N[C@@H](CC(=O)O)C(=O)N[C@@H](C)C(=O)N[C@@H](CC(=O)O)C(=O)N[C@@H](Cc1ccccc1)C(=O)O)[C@H](C)O | Ribonucleoside-diphosphate reductase RR1 (Homo sapiens) (UniProt P23921+Q7LG56+P31350) | 18 |

Prompt: I would be grateful if you could share the reported RI for `CC(=O)N[C@@H](Cc1ccccc1)C(=O)N[C@H](C(=O)N[C@@H](CC(C)C)C(=O)N[C@@H](CC(=O)O)C(=O)N[C@@H](CC(=O)O)C(=O)N[C@@H](Cc1ccccc1)C(=O)O)[C@H](C)O` .
Response: 3

###

molecular target: Ribonucleoside-diphosphate reductase RR1 (Homo sapiens) (UniProt P23921+Q7LG56+P31350); assay: Relative inhibitory potency against mammalian ribonucleotide reductase; format: protein-complex assay
metric: RI (%)
The reply should be a number in %, with the unit left off.

| smiles_str | unit_name | value_observed |
| --- | --- | --- |
| CC(=O)N[C@@H](Cc1ccc(N=[N+]=[N-])cc1)C(=O)N[C@H](C(=O)N[C@@H](CC(C)C)C(=O)N[C@@H](CC(=O)O)C(=O)N[C@@H](C)C(=O)N[C@@H](CC(=O)O)C(=O)N[C@@H](Cc1ccccc1)C(=O)O)[C@H](C)O | % | 10 |

Prompt: Query the reported RI for Ribonucleoside-diphosphate reductase RR1 (Homo sapiens) (UniProt P23921+Q7LG56+P31350); item: `CC(=O)N[C@@H](Cc1ccccc1)C(=O)N[C@H](C(=O)N[C@@H](CC(C)C)C(=O)N[C@@H](CC(=O)O)C(=O)N[C@@H](C)C(=O)N[C@@H](CC(N)=O)C(=O)N[C@@H](Cc1ccccc1)C(=O)O)[C@H](C)O`
Response: 23
